target: H5N1 neuraminidase (A/Anhui/2005) (Influenza A virus (H5N1)); experiment: biochemical; assay type: biochemical, influenza A H5N1 (A/Anhui/2005); conditions: read-out: inhibition rate against NA from H5N1 subtype
# if value of inhibition at 10 µM reaches 50%, tag criterion met; if it stays below, tag criterion not met

structure string | qualitative label
CCC(CC)O[C@@H]1C=C(C(=O)O)C[C@H](NS(C)(=O)=O)[C@H]1NC(C)=O | criterion met
CCC(CC)O[C@@H]1C=C(C(=O)O)C[C@H](NS(=O)(=O)c2ccc(C(F)(F)F)cc2)[C@H]1NC(C)=O | criterion not met
CCCCCS(=O)(=O)N[C@H]1CC(C(=O)O)=C[C@@H](OC(CC)CC)[C@@H]1NC(C)=O | criterion not met
CCC(CC)O[C@@H]1C=C(C(=O)O)C[C@H](NS(=O)(=O)c2ccccc2N)[C@H]1NC(C)=O | criterion met

* * *

experiment: Metabolic stability in human liver microsomes in vitro; conditions: human, liver microsomes

molecule | half-life
O=C(O)Cc1ccccc1Nc1c(Cl)cccc1Cl [Diclofenac, diclofenac] | 9.2 min
CCC(CC)O[C@@H]1C=C(C(=O)O)C[C@H](NS(C)(=O)=O)[C@H]1NC(C)=O [4a] | > 145 min
C[C@]12CC[C@H]3[C@@H](CCC4=CC(=O)CC[C@@]43C)[C@@H]1CC[C@@H]2O [Testosterone, testosterone] | 12.5 min

* * *

structure string | melting point
CCC(CC)O[C@@H]1C=C(C(=O)O)C[C@H](NS(=O)(=O)c2cccc(N)c2)[C@H]1NC(C)=O | 177.4 to 178.1 °C
CCC(CC)O[C@@H]1C=C(C(=O)O)C[C@H](NS(=O)(=O)CC)[C@H]1NC(C)=O | 187.7 to 190 °C
CCC(CC)O[C@@H]1C=C(C(=O)O)C[C@H](NS(=O)(=O)c2ccc(NC(C)=O)cc2)[C@H]1NC(C)=O | 236.7 to 238.6 °C
CCC(CC)O[C@@H]1C=C(C(=O)O)C[C@H](NS(=O)(=O)c2ccc(N)cc2)[C@H]1NC(C)=O | 176.7 to 181.4 °C
CCCS(=O)(=O)N[C@H]1CC(C(=O)O)=C[C@@H](OC(CC)CC)[C@@H]1NC(C)=O | 196.3 to 198.6 °C
CCC(CC)O[C@@H]1C=C(C(=O)O)C[C@H](NS(=O)(=O)C(F)(F)F)[C@H]1NC(C)=O | 193.1 to 195.4 °C
CCCCS(=O)(=O)N[C@H]1CC(C(=O)O)=C[C@@H](OC(CC)CC)[C@@H]1NC(C)=O | 183.3 to 184.4 °C

* * *

target: H5N1 neuraminidase (A/Anhui/2005) (Influenza A virus (H5N1), UniProt A0A0C5AGB3); test: biochemical; format: biochemical, influenza A H5N1 (A/Anhui/2005); details: read-out: inhibition rate against NA from H5N1 subtype
measurement name: inhibition at 100 µM (%)

structure string | measurement name | numeric result
CCCS(=O)(=O)N[C@H]1CC(C(=O)O)=C[C@@H](OC(CC)CC)[C@@H]1NC(C)=O | inhibition at 100 µM | 56.5
CCC(CC)O[C@@H]1C=C(C(=O)O)C[C@H](NS(C)(=O)=O)[C@H]1NC(C)=O | inhibition at 100 µM | 91.8
CCC(CC)O[C@@H]1C=C(C(=O)O)C[C@H](NS(=O)(=O)CC)[C@H]1NC(C)=O | inhibition at 100 µM | 85.1
CCC(CC)O[C@@H]1C=C(C(=O)O)C[C@H](NS(=O)(=O)c2ccc(C(F)(F)F)cc2)[C@H]1NC(C)=O | inhibition at 100 µM | 79.2
CCC(CC)O[C@@H]1C=C(C(=O)O)C[C@H](NS(=O)(=O)c2ccccc2[N+](=O)[O-])[C@H]1NC(C)=O | inhibition at 100 µM | 70.1
CCC(CC)O[C@@H]1C=C(C(=O)O)C[C@H](NS(=O)(=O)c2ccccc2N)[C@H]1NC(C)=O | inhibition at 100 µM | 86.6
CCC(CC)O[C@@H]1C=C(C(=O)O)C[C@H](NS(=O)(=O)c2ccc([N+](=O)[O-])cc2)[C@H]1NC(C)=O | inhibition at 100 µM | 38.9
CCC(CC)O[C@@H]1C=C(C(=O)O)C[C@H](NS(=O)(=O)C(F)(F)F)[C@H]1NC(C)=O | inhibition at 100 µM | 49.7
CCC(CC)O[C@@H]1C=C(C(=O)O)C[C@H](NS(=O)(=O)c2ccc(N)cc2)[C@H]1NC(C)=O | inhibition at 100 µM | 12.5
CCC(CC)O[C@@H]1C=C(C(=O)O)C[C@H](NS(=O)(=O)c2cccc([N+](=O)[O-])c2)[C@H]1NC(C)=O | inhibition at 100 µM | 33.8
CCCCS(=O)(=O)N[C@H]1CC(C(=O)O)=C[C@@H](OC(CC)CC)[C@@H]1NC(C)=O | inhibition at 100 µM | 53.5
CCCCCS(=O)(=O)N[C@H]1CC(C(=O)O)=C[C@@H](OC(CC)CC)[C@@H]1NC(C)=O | inhibition at 100 µM | 50.5
CCC(CC)O[C@@H]1C=C(C(=O)O)C[C@H](NS(=O)(=O)c2cccc(N)c2)[C@H]1NC(C)=O | inhibition at 100 µM | 52.7
